Give EC50 for every item shown.
# EXPERIMENTAL SYSTEM: GLP-1R (Homo sapiens)
# Sequence (P43220 24-463): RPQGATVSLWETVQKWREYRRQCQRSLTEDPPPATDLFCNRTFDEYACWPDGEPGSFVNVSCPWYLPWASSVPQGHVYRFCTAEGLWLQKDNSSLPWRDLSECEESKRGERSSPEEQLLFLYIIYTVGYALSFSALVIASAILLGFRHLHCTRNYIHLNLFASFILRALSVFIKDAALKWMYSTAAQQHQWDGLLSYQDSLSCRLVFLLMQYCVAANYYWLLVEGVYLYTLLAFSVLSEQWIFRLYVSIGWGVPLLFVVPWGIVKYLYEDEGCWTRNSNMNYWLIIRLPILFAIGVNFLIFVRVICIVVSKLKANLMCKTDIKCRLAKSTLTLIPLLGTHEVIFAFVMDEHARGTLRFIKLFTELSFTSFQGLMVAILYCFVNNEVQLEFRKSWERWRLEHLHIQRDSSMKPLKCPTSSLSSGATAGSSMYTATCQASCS
# ASSAY COMMENT: GLP-1R activation: cAMP increase in CHO cells stably expressing GLP-1R
# Type: cell-based
# CONDITIONS: cAMP increase, CHO cells stably expressing GLP-1R, 10 point dose response, 30 minutes incubation; read-out: EC50

# COMPOUND, EC50
measured = [
    ("COc1cc(Cl)ccc1COc1nccc(-c2ccc(Cc3nc4ccc(C(=O)O)nc4n3CC3(CF)CC3)cc2F)n1 [Example 233]", "1.35 nM"),
    ("N#Cc1ccc(COc2cccc(-c3ccc(Cc4nc5ccc(C(=O)O)cc5n4C4(CF)CC4)c(F)c3)n2)c(F)c1 [Example 381]", "7.43 nM"),
]

Next item in the queue.
query: Which EC50 value belongs to COCCn1c(Cc2c(F)cc(-c3cccnc3OC(C)c3ccc(Cl)cc3F)cc2F)nc2ccc(C(=O)O)cc21 (stereo not drawn) [Example 372] ?
result: 243 nM
